Hi there, I'd appreciate the recorded logP[b] for every entry that follows.
assay: log P by HPLC (OECD Guideline 117), method [b] neutral range pH 7.8; format: physicochemical
One number for each entry.

{"line-notation": "Clc1ccccc1-c1ccc2nc(-c3cccnc3)sc2c1", "observed-measurement": 4.2}
{"line-notation": "Cn1c(OCC(F)(F)F)nn(-c2ccc3nc(-c4cccnc4)sc3c2)c1=O", "observed-measurement": 2.88}
{"line-notation": "c1ccc(-c2ccc3nc(-c4cccnc4)sc3c2)cc1", "observed-measurement": 3.87}
{"line-notation": "FC(F)(F)c1cnn(-c2ccc3nc(-c4cccnc4)sc3c2)c1", "observed-measurement": 3.42}

q: Answer with the recorded logP[b] of CSc1nn(-c2ccc3nc(-c4cccnc4)sc3c2)c(=O)n1C only.
a: 2.56

###

experiment: log P by HPLC (OECD Guideline 117), method [a] acidic range pH 2.7; assay type: physicochemical
Mark Met for logP[a] under 3, Not met if at or over.

{"compound": "Cn1c(SCC(F)(F)F)nn(-c2ccc3nc(-c4cccnc4)sc3c2)c1=O [compound 54]", "assigned-category": "Met"}
{"compound": "CC(F)(F)CNC(=O)c1ccc2nc(-c3cncc(F)c3)sc2c1 [compound 68]", "assigned-category": "Met"}
{"compound": "CN(C(=O)C1CCS(=O)(=O)C1)c1ccc2nc(-c3cccnc3)sc2c1 (centres unmarked) [compound 82]", "assigned-category": "Met"}

q: Field: below-cutoff. Rule: recorded logP[a] strictly less than 3. Subject: CCN(C)C(=O)c1ccc2nc(-c3cccnc3)sc2c1 [compound 61]
a: Met

###

test: log P by HPLC (OECD Guideline 117), method [a] acidic range pH 2.7; format: physicochemical
Label true (1) when logP[a] is at or above 3; anything below gets false (0).

Please review the following examples before continuing.
{"molecule": "CN(C)C(=O)c1ccc2nc(-c3cccnc3)sc2c1", "assigned-category": "false (0)"}
{"molecule": "Clc1ccccc1-c1ccc2nc(-c3cccnc3)sc2c1", "assigned-category": "true (1)"}
{"molecule": "CN(C(=O)c1cccc(SC(F)(F)F)c1)c1ccc2nc(-c3cccnc3)sc2c1", "assigned-category": "true (1)"}
{"molecule": "CON(C)C(=O)c1ccc2nc(-c3cccnc3)sc2c1", "assigned-category": "false (0)"}

q: # bool: logP[a] of Cn1cnn(-c2ccc3nc(-c4cccnc4)sc3c2)c1=S >= 3
a: false (0)

q: # bool: logP[a] of c1cncc(-c2nc3ccc(NCC4CC4)cc3s2)c1 >= 3
a: false (0)

q: # bool: logP[a] of O=C(Nc1ccc2nc(-c3cccnc3)sc2c1)c1cccc([S+]([O-])C(F)(F)F)c1 (stereo not drawn) >= 3
a: false (0)

q: # bool: logP[a] of c1ccc(-c2ccc3nc(-c4cccnc4)sc3c2)cc1 >= 3
a: true (1)

q: # bool: logP[a] of O=C(NCC(F)(F)F)c1ccc2nc(-c3cccnc3)sc2c1 >= 3
a: false (0)

###

tested on: Myzus persicae; assay: Myzus persicae spray test; format: in vivo; details: application rate 500 g/ha, Chinese cabbage leaf discs, after 6 days
measurement-kind: efficacy (aphids killed)

Example entries and their recorded answers appear below.
{"molecule": "CC(F)(F)CNC(=O)c1ccc2nc(-c3cncc(F)c3)sc2c1 [compound 68]", "efficacy (aphids killed)": "100%"}
{"molecule": "Cc1nn(-c2ccc3nc(-c4cccnc4)sc3c2)c(=O)n1C [compound 48]", "efficacy (aphids killed)": "90%"}
{"molecule": "CN(C)C(=O)c1ccc2nc(-c3cncc(F)c3)sc2c1 [compound 60]", "efficacy (aphids killed)": "100%"}
{"molecule": "CNC(=O)c1ccc2nc(-c3cncc(F)c3)sc2c1 [compound 58]", "efficacy (aphids killed)": "100%"}
{"molecule": "CS(=O)(=O)CCNC(=O)c1ccc2nc(-c3cncc(F)c3)sc2c1 [compound 72]", "efficacy (aphids killed)": "90%"}
{"molecule": "Cc1cnn(-c2ccc3nc(-c4cccnc4)sc3c2)c1 [compound 45]", "efficacy (aphids killed)": "90%"}
{"molecule": "CON(C)C(=O)c1ccc2nc(-c3cccnc3)sc2c1 [compound 65]", "efficacy (aphids killed)": "100%"}
{"molecule": "CON(C)C(=O)c1ccc2nc(-c3cncc(F)c3)sc2c1 [compound 66]", "efficacy (aphids killed)": "100%"}
{"molecule": "COc1nn(-c2ccc3nc(-c4cccnc4)sc3c2)c(=O)n1C [compound 50]", "efficacy (aphids killed)": "90%"}
{"molecule": "CN(C)C(=O)c1ccc2nc(-c3cccnc3)sc2c1 [compound 59]", "efficacy (aphids killed)": "100%"}

For each listed entry, give its efficacy (aphids killed).
1. CCN(C)C(=O)c1ccc2nc(-c3cccnc3)sc2c1 [compound 61]
2. CSCCC(=O)N(C)c1ccc2nc(-c3cccnc3)sc2c1 [compound 78]
3. CSc1nn(-c2ccc3nc(-c4cccnc4)sc3c2)c(=O)n1C [compound 51]
4. CSCCNC(=O)c1ccc2nc(-c3cncc(F)c3)sc2c1 [compound 70]
5. Cc1ccc(-c2ccc3nc(-c4cccnc4)sc3c2)cc1 [compound 4]
6. CCN(C)C(=O)c1ccc2nc(-c3cncc(F)c3)sc2c1 [compound 62]

a:
1. 100%
2. 100%
3. 100%
4. 90%
5. 100%
6. 100%

This collection of values is drawn from patent US20170325459A1.
